B1: FBXO3 (parent)
chain: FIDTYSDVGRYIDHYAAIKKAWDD

Variants of: B1
Assay: protein stability index of a GFP-peptide fusion (GPS, HEK-293T) (PSI 1-6); higher = more stable;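 further: lentivirally expressed fusions sorted by FACS into six bins by GFP to DsRed ratio, PSI derived from sequencing read proportions per bin multiplied by bin number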
Conditions: c terminus: a fixed tail appended

| Variant string | protein stability index |
| --- | --- |
| A17S | 2.38 |
| D13A | 1.98 |
| G9S | 1.91 |
| V8H | 1.82 |
| D7P | 2.16 |
| I18T | 2.24 |
| K19S | 1.02 |
| F1G | 3.05 |
| Y5V | 2.47 |
| V8P | 2.72 |
| I12H | 1.91 |
| A16W | 1.84 |
| K19Q | 2.07 |
| A17K | 1.92 |
| S6E | 1.62 |
| H14F | 2.19 |
| S6C | 2.12 |
| Y5L | 1.96 |
| H14K | 1.87 |
| V8M | 2.03 |
| T4M | 1.89 |
| S6I | 2.14 |
| V8Y | 1.81 |
| G9P | 1.85 |
| S6Q | 1.89 |
| A17P | 2.17 |
| K20N | 2.76 |
| K19L | 1.92 |
| I2E | 3.59 |
| Y15Q | 2.96 |
| A16V | 2.6 |
| I2D | 3.65 |
| A21V | 1.22 |
| D3N | 1.74 |
| D13Q | 2.7 |
| K20D | 1.74 |
| A16E | 1.89 |
| Y11Q | 2.06 |
| I2K | 3.03 |
| I2H | 2.47 |
| D3W | 1.92 |
| R10I | 1.48 |
| A16S | 1.93 |
| D3V | 2.63 |
